Where do these numbers come from? They come from ChEMBL document CHEMBL2046422.

tested-on: Prostaglandin G/H synthase 2 (Homo sapiens)
test-protocol: Inhibition of COX2 in LPS-stimulated human whole blood assessed as residual PGF2alpha level at 100 uM preincubated for 15 mins prior to LPS-stimulation measured after 24 hrs by LC-MS/MS analysis relative to control
Please provide measured Activity for the entries that follow.
Answers are plain numbers, in %.

# batch: return Activity for each of the 6 molecules below
1. CCCc1nc2ccc(NC(=O)c3ccccc3Cl)cc2c(=O)n1Cc1cccc(Cl)c1
2. CCCc1nc2ccc(NC(=O)c3ccccc3Cl)cc2c(=O)n1Cc1ccccc1Cl
3. CCCc1nc2ccc(NC(=O)c3ccccc3Cl)cc2c(=O)n1Cc1ccc(-c2ccc(Cl)cc2)cc1
4. CCCc1nc2ccc(NC(=O)c3ccccc3Cl)cc2c(=O)n1Cc1ccc(-c2cccc(Cl)c2)cc1
5. CCCc1nc2ccc(NC(=O)c3ccccc3C)cc2c(=O)n1Cc1cccc(Cl)c1
6. CCCc1nc2ccc(NC(=O)c3ccccc3Cl)cc2c(=O)n1Cc1ccc(-c2ccccc2)cc1

Result:
[81.3, 73.4, 234, 94.2, 93.8, 92.6]

# batch: return Activity for each of the 2 molecules below
1. CCCc1nc2ccc(NC(=O)c3c(F)cccc3Cl)cc2c(=O)n1Cc1cccc(Cl)c1
2. CCCc1nc2ccc(NC(=O)c3ccccc3Cl)cc2c(=O)n1Cc1ccc(-c2cccc(OC)c2)cc1

Result:
[97, 92.5]

###

Please provide measured inhibition for the entries that follow.
tested-on: Prostaglandin E synthase (Homo sapiens) (UniProt O14684)
Sequence (O14684 whole entry): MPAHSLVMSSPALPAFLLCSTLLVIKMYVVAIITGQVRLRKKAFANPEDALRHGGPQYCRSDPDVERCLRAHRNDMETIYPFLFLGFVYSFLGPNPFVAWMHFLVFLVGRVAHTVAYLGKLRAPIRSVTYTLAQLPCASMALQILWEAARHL
test-protocol: Inhibition of mPGES-1 derived from IL1beta and TNFalpha stimulated human HeLa cells microsomal fraction using PGH2 as substrate at 1 uM preincubated for 30 mins prior to substrate addition measured after 1 min by LC-MS/MS analysis relative to control
Give bare numbers, in %.

# batch: return inhibition for each of the 7 compounds below
1. CCCc1nc2ccc(NC(=O)CCc3ccccc3)cc2c(=O)n1Cc1ccc(-c2cccc(Cl)c2)cc1
2. CCCc1nc2ccc(NC(=O)c3ccccc3C)cc2c(=O)n1Cc1cccc(Cl)c1
3. CCCc1nc2ccc(NC(=O)c3ccccc3F)cc2c(=O)n1Cc1ccc(-c2cccc(Cl)c2)cc1
4. CCCc1nc2ccc(NC(=O)c3ccc(Cl)cc3)cc2c(=O)n1Cc1ccc(-c2cccc(Cl)c2)cc1
5. Cc1ccccc1C(=O)Nc1cc2c(=O)n(Cc3ccccc3)c(C)nc2cc1N1CCCC1
6. CCCc1nc2ccc(NC(=O)C(C)(C)C)cc2c(=O)n1Cc1ccc(-c2cccc(Cl)c2)cc1
7. CCCc1nc2ccc(NC(=O)c3ccccc3Cl)cc2c(=O)n1Cc1ccc(-c2ccccc2OC)cc1

Result:
[32.7, 63.1, 30, 14.7, 37.1, 18.8, 61.3]

# batch: return inhibition for each of the 8 compounds below
1. CCCc1nc2ccc(NC(=O)Nc3ccccc3Cl)cc2c(=O)n1Cc1ccccc1Cl
2. CCCc1nc2ccc(NC(=O)c3ccccc3Cl)cc2c(=O)n1Cc1ccc(-c2ccc(Cl)cc2)cc1
3. CCCc1nc2ccc(NC(=O)c3cccs3)cc2c(=O)n1Cc1ccc(-c2cccc(Cl)c2)cc1
4. Cc1nc2ccc(NC(=O)c3ccccc3Cl)cc2c(=O)n1Cc1ccc(-c2cccc(Cl)c2)cc1
5. CCCc1nc2ccc(NC(C)=O)cc2c(=O)n1Cc1ccc(-c2cccc(Cl)c2)cc1
6. CCCc1nc2ccc(NC(=O)c3ccccc3Cl)cc2c(=O)n1Cc1ccc(-c2cccc(OC)c2)cc1
7. CCCc1nc2ccc(NC(=O)c3ccccc3Cl)cc2c(=O)n1Cc1ccc(-c2cccc(Cl)c2)cc1
8. CCCc1nc2ccc(NC(=O)c3ccccc3Cl)cc2c(=O)n1Cc1ccc(-c2ccccc2)cc1

Result:
1. 14.1
2. 68.8
3. 15.6
4. 41.9
5. 14.8
6. 71.5
7. 66.7
8. 74.2

Given the compound "CCCc1nc2ccc(NC(=O)c3ccccc3)cc2c(=O)n1Cc1ccc(-c2cccc(Cl)c2)cc1" and test system Prostaglandin E synthase (Homo sapiens) (UniProt O14684), the measured inhibition is 15.3

###

tested-on: 5-lipoxygenase/FLAP (Homo sapiens) (UniProt P09917+P20292)
test-protocol: Inhibition of 5-lipoxygenase/FLAP in calcium ionophore-stimulated human whole blood assessed as residual (+/-)11HETE level at 10 uM preincubated for 15 mins prior to calcium ionophore-stimulation measured after 15 mins by LC-MS/MS analysis
Assay type: protein-complex assay
Please provide measured Activity for the entries that follow.
Just the number plus its unit, please.

Worked examples, 3 molecules total:
• CCCc1nc2ccc(NC(=O)c3ccccc3C)cc2c(=O)n1Cc1cccc(Cl)c1 = 86.5%
• CCCc1nc2ccc(NC(=O)c3ccccc3Cl)cc2c(=O)n1Cc1ccccc1Cl = 75.4%
• CCCc1nc2ccc(NC(=O)c3ccccc3Cl)cc2c(=O)n1Cc1ccc(-c2ccccc2)cc1 = 84.8%

# batch: return Activity for each of the 5 molecules below
1. CCCc1nc2ccc(NC(=O)c3ccccc3Cl)cc2c(=O)n1Cc1cccc(Cl)c1
2. CCCc1nc2ccc(NC(=O)c3ccccc3Cl)cc2c(=O)n1Cc1ccc(-c2ccc(Cl)cc2)cc1
3. CCCc1nc2ccc(NC(=O)c3ccccc3Cl)cc2c(=O)n1Cc1ccc(-c2cccc(Cl)c2)cc1
4. CCCc1nc2ccc(NC(=O)c3c(F)cccc3Cl)cc2c(=O)n1Cc1cccc(Cl)c1
5. CCCc1nc2ccc(NC(=O)c3ccccc3Cl)cc2c(=O)n1Cc1ccc(-c2cccc(OC)c2)cc1

Result:
["71.6%", "85.2%", "76.8%", "123%", "77%"]

###

tested-on: 5-lipoxygenase/FLAP (Homo sapiens) (UniProt P09917+P20292)
test-protocol: Inhibition of 5-lipoxygenase/FLAP in calcium ionophore-stimulated human whole blood assessed as residual 12(s)HETE level at 10 uM preincubated for 15 mins prior to calcium ionophore-stimulation measured after 15 mins by LC-MS/MS analysis
Assay type: protein-complex assay
Criterion: Activity strictly less than 90%. Met: y. Not met: n.

Would you please look over these solved cases?
- CCCc1nc2ccc(NC(=O)c3c(F)cccc3Cl)cc2c(=O)n1Cc1cccc(Cl)c1: n
- CCCc1nc2ccc(NC(=O)c3ccccc3Cl)cc2c(=O)n1Cc1cccc(Cl)c1: n
- CCCc1nc2ccc(NC(=O)c3ccccc3Cl)cc2c(=O)n1Cc1ccc(-c2ccccc2)cc1: n

Ask: I'd appreciate it if you could check whether "CCCc1nc2ccc(NC(=O)c3ccccc3Cl)cc2c(=O)n1Cc1ccccc1Cl" has Activity smaller than 90%.
Result: y

Ask: I'd appreciate it if you could check whether "CCCc1nc2ccc(NC(=O)c3ccccc3Cl)cc2c(=O)n1Cc1ccc(-c2ccc(Cl)cc2)cc1" has Activity smaller than 90%.
Result: n

Ask: I'd appreciate it if you could check whether "CCCc1nc2ccc(NC(=O)c3ccccc3Cl)cc2c(=O)n1Cc1ccc(-c2cccc(Cl)c2)cc1" has Activity smaller than 90%.
Result: y

Ask: I'd appreciate it if you could check whether "CCCc1nc2ccc(NC(=O)c3ccccc3Cl)cc2c(=O)n1Cc1ccc(-c2cccc(OC)c2)cc1" has Activity smaller than 90%.
Result: y

###

tested-on: 5-lipoxygenase/FLAP (Homo sapiens) (UniProt P09917+P20292)
test-protocol: Inhibition of 5-lipoxygenase/FLAP in calcium ionophore-stimulated human whole blood assessed as 5(s)HETE level at 10 uM preincubated for 15 mins prior to calcium ionophore-stimulation measured after 15 mins by LC-MS/MS analysis
Format: protein-complex assay
Set-up: scale not given: the % may be the effect or the level left
Assign Y to entries whose Activity meets or exceeds 90%; assign N to the rest.

Ask: Evaluate "CCCc1nc2ccc(NC(=O)c3ccccc3Cl)cc2c(=O)n1Cc1ccc(-c2cccc(OC)c2)cc1" : Activity at minimum 90%?
Result: N

###

tested-on: Prostaglandin G/H synthase 1 (Homo sapiens) (UniProt P23219)
Sequence (P23219 whole entry): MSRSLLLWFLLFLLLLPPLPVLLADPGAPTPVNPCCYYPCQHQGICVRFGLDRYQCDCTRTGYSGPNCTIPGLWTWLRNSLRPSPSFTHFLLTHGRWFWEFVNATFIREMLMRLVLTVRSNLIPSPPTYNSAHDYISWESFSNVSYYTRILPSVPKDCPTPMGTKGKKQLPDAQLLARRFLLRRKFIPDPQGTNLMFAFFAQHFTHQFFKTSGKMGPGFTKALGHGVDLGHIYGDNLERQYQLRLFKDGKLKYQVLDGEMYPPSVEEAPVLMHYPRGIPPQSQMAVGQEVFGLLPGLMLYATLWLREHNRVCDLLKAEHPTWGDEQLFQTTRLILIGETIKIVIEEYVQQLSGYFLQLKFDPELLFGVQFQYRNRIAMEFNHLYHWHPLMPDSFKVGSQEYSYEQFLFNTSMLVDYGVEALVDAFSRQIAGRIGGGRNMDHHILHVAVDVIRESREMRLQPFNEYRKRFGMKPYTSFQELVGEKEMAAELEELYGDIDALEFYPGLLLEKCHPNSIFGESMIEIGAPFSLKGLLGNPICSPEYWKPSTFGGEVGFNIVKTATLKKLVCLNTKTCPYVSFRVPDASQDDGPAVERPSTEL
test-protocol: Inhibition of COX1 in human whole blood assessed as residual PGD2 level at 10 uM after 1 hr by LC-MS/MS analysis relative to control
Criterion: Activity strictly less than 90%. Met: yes (1). Not met: no (0).

Would you please look over these solved cases?
- CCCc1nc2ccc(NC(=O)c3ccccc3Cl)cc2c(=O)n1Cc1ccc(-c2ccc(Cl)cc2)cc1: no (0)
- CCCc1nc2ccc(NC(=O)c3ccccc3C)cc2c(=O)n1Cc1cccc(Cl)c1: no (0)
- CCCc1nc2ccc(NC(=O)c3ccccc3Cl)cc2c(=O)n1Cc1ccc(-c2cccc(Cl)c2)cc1: no (0)

Ask: I'd appreciate it if you could check whether "CCCc1nc2ccc(NC(=O)c3ccccc3Cl)cc2c(=O)n1Cc1cccc(Cl)c1" has Activity smaller than 90%.
Result: yes (1)

Ask: I'd appreciate it if you could check whether "CCCc1nc2ccc(NC(=O)c3ccccc3Cl)cc2c(=O)n1Cc1ccc(-c2ccccc2)cc1" has Activity smaller than 90%.
Result: yes (1)

###

Please provide measured Activity for the entries that follow.
tested-on: Prostaglandin G/H synthase 1 (Homo sapiens)
test-protocol: Inhibition of COX1 in human whole blood assessed as residual TXB2 level at 10 uM after 1 hr by LC-MS/MS analysis relative to control
One number for each entry, in %.

# batch: return Activity for each of the 5 molecules below
1. CCCc1nc2ccc(NC(=O)c3ccccc3Cl)cc2c(=O)n1Cc1ccc(-c2cccc(OC)c2)cc1
2. CCCc1nc2ccc(NC(=O)c3c(F)cccc3Cl)cc2c(=O)n1Cc1cccc(Cl)c1
3. CCCc1nc2ccc(NC(=O)c3ccccc3Cl)cc2c(=O)n1Cc1ccc(-c2ccccc2)cc1
4. CCCc1nc2ccc(NC(=O)c3ccccc3Cl)cc2c(=O)n1Cc1cccc(Cl)c1
5. CCCc1nc2ccc(NC(=O)c3ccccc3Cl)cc2c(=O)n1Cc1ccccc1Cl

Result:
1: 89; 2: 84.4; 3: 86.4; 4: 90.4; 5: 86.1
